Origin of values: PubChem BioAssay (NCI)

- Tested on: SF-295 CNS
- test-details: NCI tumour cell line growth inhibition, 48 h

{"columns": ["compound", "TGI"],
 "data": [
  ["COc1ccc(NC(=O)c2cc(NC(=O)/C=C/c3ccccc3)c(OC)c(OC)c2)cc1", "> 100 µM"],
  ["CC1(C)OC2C(CO)OC(/N=C(\\NC#N)Oc3ccccc3)C2O1 (stereo not drawn)", "> 100 µM"],
  ["O=c1[nH]nc(Nc2ccccc2)c2nnn(Cc3ccccc3)c12", "> 100 µM"]
]}

---

- System: OVCAR-3 ovarian
- test-details: NCI tumour cell line growth inhibition, 48 h

{"columns": ["compound", "assayed-target", "TGI"],
 "data": [
  ["O=c1c2ccccc2oc2nccnc12", "OVCAR-3 ovarian", "> 100 µM"],
  ["O=c1[nH]/c(=C/c2cccs2)c(=O)[nH]/c1=C/c1ccc(OCc2ccccc2)cn1", "OVCAR-3 ovarian", "0.0382 µM"],
  ["CC(=O)OC1CC[C@@]2(C)C(CC(OC3OC(CO)C(O)C(O)C3O)[C@]3(C)C2CCC24CC23CC[C@H]4C(C)CC(O)[C@@H](O)C(C)(C)O)C1(C)C (some centres undefined)", "OVCAR-3 ovarian", "48.7 µM"],
  ["CC(C)=CCC[C@@H](C)c1c(O)c(O)c(C)c2nc3ccccc3nc12", "OVCAR-3 ovarian", "3.28 µM"],
  ["COc1ccccc1NC(=O)CC(=O)NNCC(=O)Nc1nc(-c2ccccc2)cs1", "OVCAR-3 ovarian", "> 100 µM"],
  ["NCCCCN(CCCN)C(=O)OCc1ccccc1", "OVCAR-3 ovarian", "> 100 µM"],
  ["CCOc1cccc2cccnc12", "OVCAR-3 ovarian", "> 100 µM"],
  ["Nc1nc(-c2ccccc2)cc(-c2ccc(F)cc2)c1-c1ccc(Cl)cc1", "OVCAR-3 ovarian", "> 100 µM"],
  ["COc1cc(OC)cc(-c2n[nH]nc2-c2ccc3c(c2)OCO3)c1", "OVCAR-3 ovarian", "0.378 µM"],
  ["CCC(C)CNC1=C(NC(C)=O)C(=O)c2ccccc2C1=O (centres undefined)", "OVCAR-3 ovarian", "> 100 µM"],
  ["Nc1c(Cl)ncnc1NCC1(CO)CCC1", "OVCAR-3 ovarian", "> 100 µM"],
  ["O=C1CCCn2c3ccccc3c3ccnc1c32", "OVCAR-3 ovarian", "> 100 µM"],
  ["O=C(O)c1cc(/C=C/c2ccc(O)c(O)c2)ccc1O", "OVCAR-3 ovarian", "> 100 µM"],
  ["O=C1C=Cc2cc3ccccc3c3cccc1c23", "OVCAR-3 ovarian", "19 µM"]
]}

---

- Tested on: UO-31 renal
- test-details: NCI tumour cell line growth inhibition, 48 h
Entries and their TGI values follow.

{"columns": ["compound", "TGI"],
 "data": [
  ["O=C(CC1Sc2ccccc2NC1=O)Nc1ccc([N+](=O)[O-])cc1[N+](=O)[O-] (configuration not stated)", "25.1 µM"],
  ["O=C(NCCc1ccc(F)cc1)c1cc(/C=C/c2cc(O)ccc2O)ccc1O", "3.07 µM"],
  ["Nc1ccc(Cl)cc1.Nc1ccc(Cl)cc1.Nc1ccc(Cl)cc1.O=C([O-])C(=O)[O-].O=C([O-])C(=O)[O-].[H+].[Ru+5]", "> 26.8 µM"],
  ["COc1cc(C2C3=C(COC3=O)N(CCO)c3cc4c(cc32)OCCO4)cc(OC)c1O (configuration not stated)", "> 50 µM"],
  ["COC(=O)c1ccc2c(c1)[n+](=O)c(C(C)=O)c(C(F)(F)F)n2[O-]", "3.15 µM"],
  ["O=c1[nH]nc(Nc2ccccc2)c2nnn(Cc3ccccc3)c12", "> 100 µM"],
  ["O=C(NC12CC3CC(CC(C3)C1)C2)n1cnc2cncnc21", "> 100 µM"],
  ["CC(=O)Nc1ccc(S(=O)(=O)/N=c2/sc(S(N)(=O)=O)nn2C)cc1", "> 100 µM"],
  ["Cc1cc(C)c2nc(Nc3nc(C)c(C)c(=O)[nH]3)nc(C)c2c1", "5.86 µM"],
  ["Cc1cc(C)cc(NC(=O)CCC(=O)C2CCC/C2=N\\NC(=O)C(=O)NN)c1 (configuration not stated)", "> 100 µM"],
  ["COc1cc2[nH]c(=O)[nH]c2c2c(C)c[nH]c12", "> 100 µM"],
  ["NNC(=S)N/N=C(\\c1nc2ccc(Cl)cc2[nH]c1=O)C(O)c1ccc(Cl)cc1Cl (configuration not stated)", "> 100 µM"]
]}

---

- System: HCT-15 colon
- test-details: NCI tumour cell line growth inhibition, 48 h
Where a SMILES comes first, the peptide text is derived from it. The star is where a group is joined. Boc = CC(C)(C)OC(=O)*; OBn = c1ccc(CO*)cc1; Bn = c1ccc(C*)cc1
Entries and their TGI values follow.

{"columns": ["molecule", "TGI"],
 "data": [
  ["CC(C)CC(NC(=O)C(CCC(=O)OCc1ccccc1)NC(=O)OC(C)(C)C)C(=O)NC(COCc1ccccc1)C(=O)NC(Cc1ccccc1)C(=O)O (stereo unspecified) (Boc-E(OBn)LS(Bn)F-OH; configuration not given here)", "> 100 µM"],
  ["COc1cc(C2CC(c3ccc(C)cc3)=NN2C(C)=O)ccc1Oc1ccnc2cc(Cl)ccc12 (stereo unspecified)", "> 100 µM"],
  ["O=C1C=Cc2cc3ccccc3c3cccc1c23", "18.6 µM"],
  ["COc1ccc(/C=C/C=C2C(=O)NC(=S)NC2=O)cc1", "8.68 µM"],
  ["CCC(C)CNC1=C(NC(C)=O)C(=O)c2ccccc2C1=O (stereo unspecified)", "> 100 µM"],
  ["Cc1ccc(N=c2oc3c(ccc4ccccc43)nc2Nc2ccc(C)cc2)cc1", "> 100 µM"]
]}

---

- Tested on: SW-620 colon
- test-details: NCI tumour cell line growth inhibition, 48 h
Where a SMILES comes first, the peptide text is derived from it. [ ]: non-standard residue; d: D form. The star is where a group is joined. ξ: configuration not given here. 4Abz = Nc1ccc(C(=O)O)cc1; ξL = CC(C)CC(N)C(=O)O; NHOH = ON*

{"columns": ["compound", "assayed-target", "TGI"],
 "data": [
  ["Cc1cc2nc(N)n[n+]([O-])c2cc1C", "SW-620 colon", "> 100 µM"],
  ["CC(CC(C)[C@H]1CCC2[C@H]3C(CC[C@@]21C)[C@@]1(C)CCC(O)C[C@H]1C[C@@H]3O)C(=O)O (some centres not stated)", "SW-620 colon", "> 100 µM"],
  ["CCOC(=O)C(NC(=O)Nc1ccccc1)(Nc1cccc(Cl)c1)C(F)(F)F (configuration not stated)", "SW-620 colon", "> 100 µM"],
  ["COC1=C(C(=O)OC(C)(C)C)C23CCCCC2(C(C(=O)OC(C)(C)C)=C(OC)C3C(=O)OC(C)(C)C)C1C(=O)OC(C)(C)C (configuration not stated)", "SW-620 colon", "> 100 µM"],
  ["Nc1c2c(nc3ccccc13)-c1ccccc1CCC2", "SW-620 colon", "26.2 µM"],
  ["CC(C)CC(NC(=O)[C@@H]1CCCN1C(=O)CNC(=O)c1ccc(N)cc1)C(=O)N[C@H](C)C(=O)NO (some centres not stated) (H-[4Abz]GP[ξL][dA]-{NHOH})", "SW-620 colon", "> 100 µM"],
  ["COc1ccc(CNCCN2C(=O)c3ccc4c5c(ccc(c35)C2=O)C(=O)N(CCNCc2ccc(OC)cc2)C4=O)cc1", "SW-620 colon", "0.506 µM"],
  ["CCCCCCCC(=O)SCC/C=C/[C@@H]1CC(=O)NCc2cccc(n2)CN(Cc2ccc(Cl)cc2)CC(=O)N[C@@H](C(C)C)C(=O)O1", "SW-620 colon", "> 100 µM"],
  ["N#CC1(Cc2ccccc2Cl)c2ccccc2C=CN1C(=O)c1ccccc1 (configuration not stated)", "SW-620 colon", "> 100 µM"],
  ["O=C1CCCn2c3ccccc3c3ccnc1c32", "SW-620 colon", "> 100 µM"],
  ["O=C1N2CCN=C2c2ccccc2C1(O)c1ccccc1 (configuration not stated)", "SW-620 colon", "> 100 µM"],
  ["CCC(C)CNC1=C(NC(C)=O)C(=O)c2ccccc2C1=O (configuration not stated)", "SW-620 colon", "> 100 µM"],
  ["COc1ccc(-n2cc(-c3ccc(Cl)cc3)[nH]c2=S)cc1Cl", "SW-620 colon", "> 100 µM"],
  ["CCCCC(=O)Nc1ccc2cc(C(=O)OC)c(=O)[nH]c2n1", "SW-620 colon", "> 100 µM"],
  ["COc1ccc(C2CC(c3cccc(Nc4ccnc5cc(Cl)ccc45)c3)=NN2c2ccccc2)cc1 (configuration not stated)", "SW-620 colon", "14.4 µM"],
  ["CC(=O)O/N=C1\\C=Cc2c(no[n+]2[O-])C1=O", "SW-620 colon", "9.04 µM"],
  ["O=C1/C=C(/c2ccc(O)cc2)[C@H](O)Cc2ccc(OC3OC(CO)C(O)C(O)C3O)cc2O1 (some centres not stated) (tested in a mixture with another compound)", "SW-620 colon", "> 100 µM"],
  ["Nc1nc(-c2ccccc2)cc(-c2ccc(F)cc2)c1-c1ccc(Cl)cc1", "SW-620 colon", "> 100 µM"],
  ["CN(C)CCNc1ccccn1", "SW-620 colon", "> 100 µM"],
  ["COc1ccc(/C=C/C=C2C(=O)NC(=S)NC2=O)cc1", "SW-620 colon", "3.37 µM"],
  ["COc1cccc(-n2cnc3c(N/N=C/c4ccncc4)ncnc32)c1", "SW-620 colon", "> 25 µM"],
  ["CN1CCN(c2nc(NCCNc3ccnc4cc(Cl)ccc34)c3ccccc3n2)CC1", "SW-620 colon", "13.3 µM"]
]}
